targetUnderTest: vasopressin-1 receptor (Rattus norvegicus, UniProt P30560)
Construct: cell membranes prepared from rat liver; from tissue; host or cells: rat liver membranes
Sequence (P30560 whole entry): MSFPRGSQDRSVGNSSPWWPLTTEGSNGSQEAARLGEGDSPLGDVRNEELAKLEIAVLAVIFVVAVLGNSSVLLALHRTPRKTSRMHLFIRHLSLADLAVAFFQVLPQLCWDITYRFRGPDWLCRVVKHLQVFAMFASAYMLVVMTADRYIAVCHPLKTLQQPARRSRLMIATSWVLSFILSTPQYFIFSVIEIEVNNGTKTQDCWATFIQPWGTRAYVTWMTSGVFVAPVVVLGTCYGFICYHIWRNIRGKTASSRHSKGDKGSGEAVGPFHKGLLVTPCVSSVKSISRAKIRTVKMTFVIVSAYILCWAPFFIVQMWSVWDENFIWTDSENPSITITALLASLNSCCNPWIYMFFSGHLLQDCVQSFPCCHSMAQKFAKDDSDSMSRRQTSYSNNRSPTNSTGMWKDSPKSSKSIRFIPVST
assayText: 3H-vasopressin-1 antagonist binding inhibition, rat liver cell membranes
reportedConditions: Re-complexed
Ends that are not written are not given here.
# % Inhibition at 1 μM Vasopressin-1 Receptor (Table 30) annotations
experimentalReadout: % Inhibition at 1 μM Vasopressin-1 Receptor (Table 30) (%)

{"columns": ["substance", "numericReadout"],
 "data": [
  ["Ala-Tyr-Ile-Gln-Asn-Ala-Cys-Pro-Leu-Gly-NH2 (AYIQNACPLG-NH2; not fully specified (bridges); printed as Ala-Tyr-Ile-Gln-Asn-Ala-Cys-Pro-Leu-Gly-NH2; also: oxorhenium(V) N3S1 metal chelate (Re=O)) [SEQ ID NO:153]", 0],
  ["Ala-Tyr-Ile-Gln-Asn-Ala-Ala-Cys-Leu-Gly-NH2 (AYIQNAACLG-NH2; not fully specified (bridges); printed as Ala-Tyr-Ile-Gln-Asn-Ala-Ala-Cys-Leu-Gly-NH2; also: oxorhenium(V) N3S1 metal chelate (Re=O)) [SEQ ID NO:152]", 1],
  ["Ala-Tyr-Ile-Gln-Asn-Ala-Pro-Leu-Gly-Cys-NH2 (AYIQNAPLGC-NH2; not fully specified (bridges); printed as Ala-Tyr-Ile-Gln-Asn-Ala-Pro-Leu-Gly-Cys-NH2; also: oxorhenium(V) N3S1 metal chelate (Re=O)) [SEQ ID NO:149]", 0]
]}
